Where these numbers come from: patent US7534805B2

Quick list: melting point per entry.

Q: Fill blank: measured melting point of the molecule c1ccc(SCc2nc(-c3ccc(-c4ccccc4)cc3)c[nH]2)cc1 [Example 2] is ____.
Ans: 150 to 152 °C

Q: Consider the molecule CCCCOc1ccc(-c2c[nH]c(COc3ccccc3)n2)cc1 [Example 14] and give its measured melting point.
Ans: 179 to 181 °C

Q: Find the recorded melting point belonging to Fc1cccc(F)c1Oc1ccc(-c2c[nH]c(COc3ccccc3)n2)cc1 [Example 57] and report it.
Ans: 143 to 145 °C

Q: I'd like to know its melting point. The molecule in question is c1ccc(COc2ccc(Oc3ccc(-c4c[nH]c(COc5ccccc5)n4)cc3)cc2)cc1 [Example 33]
Ans: 134 to 136 °C

Q: Which melting point reading was recorded for the molecule Brc1cccc(Oc2ccc(-c3c[nH]c(COc4ccccc4)n3)cc2)c1 [Example 44] ?
Ans: 133 to 135 °C

Q: Using the record for Cc1cccc(Oc2ccc(-c3c[nH]c(COc4ccccc4)n3)cc2)c1 [Example 49] , report its melting point.
Ans: 160 to 162 °C

Q: Look up melting point for this molecule: c1ccc(OCc2nc(-c3ccc(-n4ccnc4)cc3)c[nH]2)cc1 [Example 11]
Ans: 194 to 196 °C

Q: Can you share its melting point? I mean this molecule: Oc1ccc(Oc2ccc(-c3c[nH]c(COc4ccccc4)n3)cc2)cc1 [Example 34]
Ans: 211 to 213 °C

Shifting focus to the molecule that follows.
Q: Given Fc1ccc(F)c(Oc2ccc(-c3c[nH]c(COc4ccccc4)n3)cc2)c1 [Example 54] , state its recorded melting point.
Ans: 128 to 130 °C
